- experimental_details: protein stability index of a GFP-peptide fusion (GPS, HEK-293T) (PSI 1-6); higher = more stable;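 note: 24-mer peptide tiles fused after GFP, lentivirally expressed, FACS-sorted into six equal bins by GFP/DsRed ratio, decoded by Illumina sequencing, PSI is the read-weighted mean bin number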
- condition: treatment: DMSO; c terminus: a fixed tail appended

[
  {
    "sequence_code": "QFGIKDVFDNAIRAALISRRHLQF [RHOBTB1]",
    "protein stability index": 2.62
  },
  {
    "sequence_code": "RANPCLSSSNEHAAPAAKTRKQAA [ELOA2]",
    "protein stability index": 5.08
  },
  {
    "sequence_code": "FVQRSGNYFVTMFDDYSATLPLTL [SLC6A17]",
    "protein stability index": 2.65
  },
  {
    "sequence_code": "VTSQATLLTITKAHSNAISNCCFT [WDR88]",
    "protein stability index": 2.3
  },
  {
    "sequence_code": "RREAVQRGRMPPTQPTHGQFALTN [NR2F2]",
    "protein stability index": 3.9
  }
]

----------
- experimental_details: protein stability index of a GFP-peptide fusion (GPS, HEK-293T) (PSI 1-6); higher = more stable
- condition: treatment: DMSO; c terminus: a fixed tail appended
Each item that follows carries a reported protein stability index.
readout_kind: protein stability index

[
  {
    "sequence_code": "CLGLSYDGLLGDNQIMPKAGLLII [MAGEA3]",
    "quantitative_result": 3.12
  },
  {
    "sequence_code": "LEWHDSLFQILSERQDMYQCLVEG [ZNF511]",
    "quantitative_result": 2.42
  },
  {
    "sequence_code": "IEENITSAAPSNDQDGEYCPEVKL [SRPK2]",
    "quantitative_result": 5.5
  },
  {
    "sequence_code": "NIVNLLTTCSTPLLNSPPSFVCWS [AUP1]",
    "quantitative_result": 3.2
  },
  {
    "sequence_code": "FSLVGKRAISTSVCVRAHESVVKS [COX4I1]",
    "quantitative_result": 2.75
  },
  {
    "sequence_code": "LESEGSPETLTNLRKGYLFMYNLV [HACD3]",
    "quantitative_result": 2.02
  },
  {
    "sequence_code": "ETIKDLMRQFLRGLDFLHANCIVH [CDK4]",
    "quantitative_result": 3.06
  },
  {
    "sequence_code": "AAVKAAREAFPSWSSRSPQERSRV [ALDH8A1]",
    "quantitative_result": 3.73
  },
  {
    "sequence_code": "GGCYFGPDVTQQLLQKYNMQFLIR [PPEF2]",
    "quantitative_result": 1.92
  },
  {
    "sequence_code": "RMYCSDLLNPNLKDTVICAMKITQ [SPACA3]",
    "quantitative_result": 2.15
  },
  {
    "sequence_code": "SCPFFETSAAYRYYIDDVFHALVR [RIT1]",
    "quantitative_result": 2.41
  }
]

----------
- experimental_details: protein stability index of a GFP-peptide fusion (GPS, HEK-293T) (PSI 1-6); higher = more stable
- condition: treatment: MLN4924 1 uM, 8 h; c terminus: a fixed tail appended

[
  {
    "sequence_code": "AGFDALQGDPKGEMAATPAGFAQL [HDAC6]",
    "protein stability index": 4.09
  },
  {
    "sequence_code": "IESKIPLNMEEPPVEEPEPKPDRL [SLC19A2]",
    "protein stability index": 5.57
  },
  {
    "sequence_code": "TSFSNYYRTWNVVVHDWLYSYVYQ [SOAT2]",
    "protein stability index": 3.01
  },
  {
    "sequence_code": "FGEVRPYFYLGGARGAGPPEPLRI [TRIM35]",
    "protein stability index": 2.76
  },
  {
    "sequence_code": "PNIRNMAPNSLSAPTMLHNSSGDF [TRAF3IP2]",
    "protein stability index": 4.43
  },
  {
    "sequence_code": "QGGKDFNVPLSISRLTPGGKAAQA [PDLIM7]",
    "protein stability index": 4.35
  },
  {
    "sequence_code": "NPTRQDESIQRIAVHLCNALVCQV [ZER1]",
    "protein stability index": 2.27
  },
  {
    "sequence_code": "TTVGYGDMKPITVGGKIVGSLCAI [KCNA4]",
    "protein stability index": 2.4
  },
  {
    "sequence_code": "MDDPKGDFITLYQMASQSSASHYK [M1AP]",
    "protein stability index": 3.31
  },
  {
    "sequence_code": "YYTFHFLYFKDKIFNVAIPRFHMA [FBXO3]",
    "protein stability index": 2.81
  },
  {
    "sequence_code": "FKRTIQGSIEYSCPASNECEITKR [ESRRA]",
    "protein stability index": 4.19
  },
  {
    "sequence_code": "FDQTVFQEVFEPPHYELCTLRGTG [NETO1]",
    "protein stability index": 2.97
  },
  {
    "sequence_code": "SAKPASLRLLQHTPSARRNYRIAG [C6orf223]",
    "protein stability index": 3.75
  },
  {
    "sequence_code": "YMDRFTVAGVLPDIEQFFNIGDSS [SPNS1]",
    "protein stability index": 2.99
  },
  {
    "sequence_code": "TSGKLLLEADELCDDGGDGRGAVV [ZBTB22]",
    "protein stability index": 5.31
  },
  {
    "sequence_code": "RTQEEKLEHVRALIKKYSDHLENV [TRIM55]",
    "protein stability index": 3.56
  },
  {
    "sequence_code": "LNELPVPMVARYIRINPQSWFDNG [CPXM2]",
    "protein stability index": 2.43
  },
  {
    "sequence_code": "SLQFDEKCLSIMLAEWEANPLICP [RPAIN]",
    "protein stability index": 2.29
  },
  {
    "sequence_code": "GRATKRRKKSGDLKKAKVQVERMR [FBXO34]",
    "protein stability index": 4.26
  },
  {
    "sequence_code": "GQYRANEGTSSIVMEIQKQIEKKE [TAF7L]",
    "protein stability index": 5.16
  },
  {
    "sequence_code": "IWNILDLVVILLSIVAVGFHIFRT [PKD2L1]",
    "protein stability index": 2.45
  },
  {
    "sequence_code": "EVFEGREDSIFGDPKKLLTQYFVQ [MAGEA6]",
    "protein stability index": 2.46
  }
]

----------
- experimental_details: protein stability index of a GFP-peptide fusion (GPS, HEK-293T) (PSI 1-6); higher = more stable
- condition: treatment: MLN4924 1 uM, 8 h; c terminus: a fixed tail appended
Each item that follows carries a reported protein stability index.
readout_kind: protein stability index

[
  {
    "sequence_code": "RGEQTTSQVSWEQDLKLFLQEPGV [FCHSD1]",
    "quantitative_result": 4.06
  },
  {
    "sequence_code": "TSFCGQQFILERGEYPRWDAWSGS [CRYBA1]",
    "quantitative_result": 2.65
  },
  {
    "sequence_code": "EDVRIFFYQSPYDSEQVPQALRRL [NCF4]",
    "quantitative_result": 2.98
  },
  {
    "sequence_code": "LPPYPPYFEGAPFPHPLWLRDTYK [PWWP2B]",
    "quantitative_result": 2.5
  },
  {
    "sequence_code": "YVKVLHHMVKISGGPRISYPLLHE [MAGEA6]",
    "quantitative_result": 2.41
  },
  {
    "sequence_code": "CIFDKFECVWNGSDSVIMTGSYNN [PPP2R2B]",
    "quantitative_result": 2.21
  },
  {
    "sequence_code": "LSFQEELLYWGIAEDHLDGCCKRR [KCNG1]",
    "quantitative_result": 2.61
  },
  {
    "sequence_code": "LGVYSALREIAFTRQLHEKTSQLS [ATE1]",
    "quantitative_result": 2.4
  },
  {
    "sequence_code": "PLEAMYMQCPVIAVNSGGPLESID [ALG2]",
    "quantitative_result": 3.86
  },
  {
    "sequence_code": "QRRPRVLSCLHSVCEQCLQILYES [RNF208]",
    "quantitative_result": 2.64
  },
  {
    "sequence_code": "SSLEFTELLTLVNRKVSQRRVDFC [CASP6]",
    "quantitative_result": 2.32
  },
  {
    "sequence_code": "CDPGMTAFEPEALGNLVEGLDFHR [CAMK2A]",
    "quantitative_result": 4.2
  },
  {
    "sequence_code": "LQTPLDIRLKESINCQLSDPSSTK [TRIM14]",
    "quantitative_result": 4.55
  },
  {
    "sequence_code": "VNSSIKTFFCPNDTYNDMATLFFN [CLCN6]",
    "quantitative_result": 2.26
  },
  {
    "sequence_code": "VRNDSCVVHEDFREDILSCYDVYS [PKD2L1]",
    "quantitative_result": 3.16
  },
  {
    "sequence_code": "RMLQREGCFRSQGASLRLAVEDGL [M1AP]",
    "quantitative_result": 2.94
  },
  {
    "sequence_code": "LVSPERAQPPDYTFPSGSGAHFPQ [PI4K2A]",
    "quantitative_result": 4.13
  },
  {
    "sequence_code": "KAETKTKKAAESLRRSVEKYNSAR [FCHO1]",
    "quantitative_result": 4.72
  }
]
